# Tested system: recombinant lcFABP (Luciola cerata)
# Protocol summary: ANS fluorescence titration of recombinant lcFABP
# Method: The binding property of lcFABP to fatty acids was analyzed by a fluorescence displacement assay using 1-anilinonaphthalene-8-sulfonic acid (ANS) as fluorescent probe. This assay utilizes ANS's property of emitting intense fluorescence when bind to the hydrophobic region of protein non-covalently. The displacement of ANS from ligand binding site of FABPs by fatty acid or other hydrophobic ligand will result in the reduction of fluorescence. […]
Assay metric: pKd
The scale used: pKd is minus the common logarithm of the concentration in molar units.

Please state recorded pKd (tested on recombinant lcFABP (Luciola cerata)) of O=S(=O)(O)c1cccc2cccc(Nc3ccccc3)c12 4.95

====

# Tested system: recombinant lcFABP (Luciola cerata)
# Protocol summary: fluorescence (ANS) displacement assay with fatty acids
# Format: binding
Listed here: items and their measured Ki.
Only the number, expressed in nM, is required.

1. CCCCCCCCCCCCCC(=O)O [Myristic acid]: 640
2. CCCCCCCCCCCCCCCC(=O)O [Palmitic acid]: 550
3. CCCCCCCC/C=C\CCCCCCCC(=O)O [Oleic acid]: 1000
4. CCCCC/C=C\C/C=C\C/C=C\C/C=C\CCCC(=O)O [Arachidonic acid]: 1590

// next entry
Name the recorded Ki for CCCCCCCCCCCC(=O)O [Dodecanoic acid] . 1670

====

# Tested system: recombinant lcFABP (Luciola cerata, UniProt G1FKW0)
# Sequence (G1FKW0 entry or part of it): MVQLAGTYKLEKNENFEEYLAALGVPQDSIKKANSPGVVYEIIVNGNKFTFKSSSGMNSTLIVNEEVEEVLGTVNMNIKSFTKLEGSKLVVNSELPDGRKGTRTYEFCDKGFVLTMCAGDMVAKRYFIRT
# Protocol summary: fluorescence (ANS) displacement assay with fatty acids
# Assay type: binding
# Particulars: ANS displacement assay, recombinant lcFABP
Assay metric: binding strength of lcFABP to ligand (in words)

1) CCCCCCCCCCCC(=O)O: moderately
2) CCCCCCCCCCCCCC(=O)O: strongly
3) CCCCCCCCCCCCCCCC(=O)O: strongly
4) CCCCC/C=C\C/C=C\C/C=C\C/C=C\CCCC(=O)O: moderately
5) CCCCCCCCCCCCCCCCCC(=O)O: strongly

// next entry
Name the recorded binding strength of lcFABP to ligand (in words) for CCCCCCCC/C=C\CCCCCCCC(=O)O . moderately
